The measurements presented in this section are drawn from ChEMBL document CHEMBL3734708.

Reported values of EC50 for individual entries
System: Human poliovirus 1 strain Sabin
assayNotes: Antiviral activity against Human poliovirus 1 strain Sabin 1 virus infected in african green monkey Vero-76 cells after 2 days by plaque reduction assay
Type: functional, organism-based
testContext: Enterovirus C, 1, Vero 76, 48 h

Ask: Retrieve EC50 measured for O=c1c(Cc2ccccc2)nc2cc3cccnc3c(Cl)c2n1C1CCCCC1 and print it.
Reply: > 20 µM

Ask: Retrieve EC50 measured for O=c1c(-c2ccccc2)nc2c(Cl)c3ncccc3cc2n1Cc1ccc([N+](=O)[O-])cc1 and print it.
Reply: > 100 µM

Ask: Retrieve EC50 measured for Cn1c(=O)c(-c2cccs2)nc2c(Cl)c3ncccc3cc21 and print it.
Reply: > 100 µM

Ask: Retrieve EC50 measured for COc1nc2cc3cccnc3c(Cl)c2nc1Cc1ccccc1 and print it.
Reply: > 100 µM

Ask: Retrieve EC50 measured for CCCn1c(=O)c(-c2ccccc2)nc2cc3cccnc3c(Cl)c21 and print it.
Reply: > 50 µM

Ask: Retrieve EC50 measured for O=c1[nH]c2cc3cccnc3c(Cl)c2nc1-c1cccs1 and print it.
Reply: > 100 µM

Ask: Retrieve EC50 measured for COc1nc2cc3cccnc3c(Cl)c2nc1C(C)C and print it.
Reply: > 100 µM

Ask: Retrieve EC50 measured for c1csc(-c2nc3cc4cccnc4cc3n2C2CCCCC2)c1 and print it.
Reply: > 15 µM

Ask: Retrieve EC50 measured for O=c1c(-c2ccccc2)nc2c(Cl)c3ncccc3cc2n1Cc1ccccc1 and print it.
Reply: > 90 µM

Ask: Retrieve EC50 measured for Cn1c(=O)c(Cc2ccccc2)nc2c(Cl)c3ncccc3cc21 and print it.
Reply: > 100 µM

Ask: Retrieve EC50 measured for O=c1[nH]c2cc3cccnc3c(Cl)c2nc1Cc1ccccc1 and print it.
Reply: > 88 µM

====

Reported values of CC50 at 96 h for individual entries
assayNotes: Cytotoxicity against human MT4 cells assessed as reduction in cell proliferation after 96 hrs by MTT assay
Type: cell-based

cpdSmiles	CC50 at 96 h
COc1nc2cc3cccnc3c(Cl)c2nc1C(C)C	> 100 µM

Ask: Retrieve CC50 at 96 h measured for COc1nc2cc3cccnc3c(Cl)c2nc1Cc1ccccc1 and print it.
Reply: > 100 µM

Ask: Retrieve CC50 at 96 h measured for CCCn1c(=O)c(-c2ccccc2)nc2cc3cccnc3c(Cl)c21 and print it.
Reply: 40 µM

Ask: Retrieve CC50 at 96 h measured for CCn1c(=O)c(-c2ccccc2)nc2c(Cl)c3ncccc3cc21 and print it.
Reply: > 100 µM

Ask: Retrieve CC50 at 96 h measured for COc1nc2cc3cccnc3c(Cl)c2nc1-c1cccs1 and print it.
Reply: > 100 µM

Ask: Retrieve CC50 at 96 h measured for O=c1c(-c2ccccc2)nc2c(Cl)c3ncccc3cc2n1Cc1ccccc1 and print it.
Reply: 88 µM

====

Reported values of selectivity ratio for individual entries
assayNotes: Selectivity index, ratio of CC50 for human GS4.1 cells to EC50 for Hepatitis C virus genotype 1b replicon infected in human GS4.1 cells
Format: toxicity, cell-based
testContext: read-out: Ratio CC50/EC50

cpdSmiles	endpointLabel	measurement
O=c1[nH]c2cc3cccnc3c(Cl)c2nc1-c1cccs1	selectivity ratio	3
O=c1[nH]c2cc3cccnc3c(Cl)c2nc1-c1ccccc1	selectivity ratio	1

Ask: Retrieve selectivity ratio measured for O=c1[nH]c2cc3cccnc3c(Cl)c2nc1Cc1ccccc1 and print it.
Reply: 1
